Recorded IC50, one value per entry.
Tested on: spleen lymphocytes cultured with PLP139-151
Test: Inhibition effect for lymphocyte activation (antigen-specific division, 3H-thymidine uptake)
Format: cell-based
Conditions: Mus musculus, Lymphocyte, female SJL/J mouse spleen lymphocytes, PLP139-151 stimulation, 5 days culture, read-out: IC 50 (inhibition of antigen-specific division of the lymphocytes)
measurement.label: IC50 (nM)

CC(=O)N(C)c1ccc(S(=O)(=O)Nc2cccc3c(Cl)c[nH]c23)cc1: 360
NS(=O)(=O)Cc1ccc(S(=O)(=O)Nc2ccc(Cl)c3c(Cl)c[nH]c23)cc1: 980
CS(=O)(=O)NCCc1ccc(S(=O)(=O)Nc2cccc3c(Cl)c[nH]c23)cc1: 580
N#Cc1c[nH]c2c(NS(=O)(=O)c3cccc(Cl)c3)cccc12: 440
CNC(=O)c1ccc(S(=O)(=O)Nc2cccc3c(Cl)c[nH]c23)cc1: 1810

----------
System: spleen lymphocytes cultured with PLP139-151
Assay: Inhibition effect for lymphocyte activation (antigen-specific division, 3H-thymidine uptake)
Type: cell-based
Details: Mus musculus, Lymphocyte, female SJL/J mouse spleen lymphocytes, PLP139-151 stimulation, 5 days culture, read-out: IC 50 (inhibition of antigen-specific division of the lymphocytes)
measurement.label: IC50 (nM)

N#Cc1cccc(S(=O)(=O)Nc2cccc3c(C#N)c[nH]c23)c1: 620
Cc1ccc(NS(=O)(=O)c2cccc(C#N)c2)c2[nH]cc(C#N)c12: 250
CCNS(=O)(=O)c1ccc(S(=O)(=O)Nc2cccc3c(Cl)c[nH]c23)cc1: 590
NS(=O)(=O)CCc1ccc(S(=O)(=O)Nc2cccc3c(Cl)c[nH]c23)cc1: 670

----------
Recorded pIC50, one value per entry.
Tested on: spleen lymphocytes cultured with PLP139-151
Assay: Inhibition effect for lymphocyte activation (antigen-specific division, 3H-thymidine uptake)
Assay type: cell-based
Conditions: Mus musculus, Lymphocyte, female SJL/J mouse spleen lymphocytes, PLP139-151 stimulation, 5 days culture, read-out: IC 50 (inhibition of antigen-specific division of the lymphocytes)
pIC50: −log10 of the molar value.
measurement.label: pIC50

CS(=O)(=O)CCc1ccc(S(=O)(=O)Nc2cccc3c(Cl)c[nH]c23)cc1 [Compound 36]: 6.11
Nc1ccncc1S(=O)(=O)Nc1cccc2c(Cl)c[nH]c12 [Compound 33]: 6.33
Nc1ccc(S(=O)(=O)Nc2cccc3c(Cl)c[nH]c23)cc1 [Compound 3]: 5.64
NC(=O)c1ccc(S(=O)(=O)Nc2cccc3c(Cl)c[nH]c23)cc1 [Compound 29]: 5.69
CS(=O)(=O)NCc1ccc(S(=O)(=O)Nc2cccc3c(Cl)c[nH]c23)cc1 [Compound 53]: 6.13
N#Cc1c[nH]c2c(NS(=O)(=O)c3ccc(N)nc3)cccc12 [Compound 37]: 6.19
NS(=O)(=O)c1ccc(S(=O)(=O)Nc2cccc3c(Cl)c[nH]c23)cc1 [Compound 19]: 5.74
CCS(=O)(=O)Nc1ccc(S(=O)(=O)Nc2cccc3c(Cl)c[nH]c23)cc1 [Compound 70]: 5.85
CS(=O)(=O)Nc1ccc(S(=O)(=O)Nc2cccc3c(Cl)c[nH]c23)cc1 [Compound 4]: 5.84
